Molecular target: casein kinase 1 epsilon (CK1 epsilon) (Homo sapiens)
Sequence (P49674 whole entry): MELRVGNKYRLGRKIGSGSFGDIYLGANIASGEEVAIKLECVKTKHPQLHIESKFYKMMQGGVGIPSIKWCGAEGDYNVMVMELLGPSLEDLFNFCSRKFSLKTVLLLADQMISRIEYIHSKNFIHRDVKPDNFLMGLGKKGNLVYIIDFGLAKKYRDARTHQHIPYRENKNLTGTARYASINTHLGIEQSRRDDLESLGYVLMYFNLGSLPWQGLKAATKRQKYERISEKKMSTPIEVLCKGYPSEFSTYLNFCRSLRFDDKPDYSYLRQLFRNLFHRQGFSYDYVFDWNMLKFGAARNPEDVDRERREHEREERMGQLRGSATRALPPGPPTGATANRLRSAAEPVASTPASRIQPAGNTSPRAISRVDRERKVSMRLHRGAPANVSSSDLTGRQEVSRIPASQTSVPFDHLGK
measuredQuantity: pIC50
Recall that pIC50 is obtained by taking minus log10 of the concentration measured in molar.

API: value(readout= pIC50, system= casein kinase 1 epsilon (CK1 epsilon) (Homo sapiens), query= OCC1CN(c2ccc3nc(-c4ccc(F)cc4)c(-c4ccnnc4)n3n2)CCN1 (racemic) )
7.01

---

measuredQuantity: melting point

> print(dat)
                                   molecule         result
1  CC(C)N1CCN(c2ccc3nc(-c4cccc(F)c4)c(-c4ccnnc4)n3n2)CC1  197 to 199 °C
2  CN1CC2CN(c3ccc4nc(-c5ccc(F)c(F)c5)c(-c5ccnnc5)n4n3)CC2C1 (stereo not shown)  186 to 188 °C
3  Fc1ccc(-c2nc3ccc(N4C[C@@H]5C[C@H]4CN5)nn3c2-c2ccnnc2)cc1  205 to 207 °C
4  Cc1cc(N2CC3CN(C)CC3C2)nn2c(-c3ccnnc3)c(-c3ccc(F)cc3)nc12 (stereo not shown)  255 to 257 °C
5  Fc1ccc(-c2nc3ccc(N4CCC(N5CCCC5)C4)nn3c2-c2ccnnc2)cc1 (stereo not shown)  182 to 184 °C
6  CC(C)(O)CN1CCN(c2ccc3nc(-c4ccc(F)cc4)c(-c4ccnnc4)n3n2)CC1  200 to 202 °C

melting point lookup needed for "Fc1ccc(-c2nc3ccc(N4CCC5(CC4)CNCCO5)nn3c2-c2ccnnc2)cc1" , thanks.
212 to 214 °C

Could you share which melting point value was measured for "CN1CCN(c2ccc3nc(-c4ccc(F)cc4)c(-c4ccnnc4)n3n2)CC1" ?
232 to 233 °C

I'd like to know its melting point. The molecule in question is CN1CC2CN(c3ccc4nc(-c5cccc(F)c5)c(-c5ccnnc5)n4n3)CC2C1 (stereo not shown)
168 to 170 °C

Recorded melting point of OCC1CN(c2ccc3nc(-c4ccc(F)cc4)c(-c4ccnnc4)n3n2)CCN1 (racemic) , please.
205 to 212 °C

Which melting point value is on record for "Fc1ccc(-c2nc3ccc(N4CCC(N5CCCC5)CC4)nn3c2-c2ccnnc2)cc1" ?
196 to 198 °C

Fill blank: measured melting point of the molecule "OCCN1C[C@@H]2C[C@H]1CN2c1ccc2nc(-c3ccc(F)cc3)c(-c3ccnnc3)n2n1" is ____.
175 to 177 °C

---

As shown below, each of these compounds has a reported melting point value.

In the examples that follow, each entry is paired with its recorded melting point.
> print(dat)
                                   compound         result
1  FCC1CN(c2ccc3nc(-c4ccc(F)cc4)c(-c4ccnnc4)n3n2)CCN1 (racemic)  184 to 189 °C
2  CC1(C)CN(c2ccc3nc(-c4ccc(F)cc4)c(-c4ccnnc4)n3n2)CCN1  226 to 228 °C
3  Fc1ccc(-c2nc3ccc(N4CCC5(CCCNC5)CC4)nn3c2-c2ccnnc2)cc1  203 to 205 °C

Next item in the queue.
Sample CN1CC2CN(c3ccc4nc(-c5ccccc5)c(-c5ccnnc5)n4n3)CC2C1 (stereo not shown) — what was its melting point?
154 to 157 °C
